Sourced from patent US20220289753A1

Recorded IC50, one value per entry.
- assayed_target: SHP-2 enzyme (Met1-Leu525) (Homo sapiens)
- Construct: synthetized by Origene, Met1-Leu525, cat #TP750155
- Sequence (Q06124 1-525): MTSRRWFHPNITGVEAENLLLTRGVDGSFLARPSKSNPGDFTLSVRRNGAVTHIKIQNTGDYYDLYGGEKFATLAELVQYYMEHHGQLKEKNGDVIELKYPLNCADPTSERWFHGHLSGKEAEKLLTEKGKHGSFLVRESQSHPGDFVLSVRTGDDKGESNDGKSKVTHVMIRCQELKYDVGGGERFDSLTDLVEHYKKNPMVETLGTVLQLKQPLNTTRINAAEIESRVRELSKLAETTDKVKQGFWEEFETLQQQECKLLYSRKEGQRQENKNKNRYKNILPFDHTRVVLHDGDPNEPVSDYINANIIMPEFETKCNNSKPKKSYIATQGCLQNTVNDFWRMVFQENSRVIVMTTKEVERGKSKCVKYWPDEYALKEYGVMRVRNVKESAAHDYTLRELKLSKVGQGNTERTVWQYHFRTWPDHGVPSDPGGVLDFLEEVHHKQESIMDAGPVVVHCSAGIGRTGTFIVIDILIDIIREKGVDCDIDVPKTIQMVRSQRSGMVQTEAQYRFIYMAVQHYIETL
- protocol_details: SHP2 inhibition enzymatic assay (DiFMUP substrate, IRS1 peptide activation)
- condition_label: SHP2 wt; activated by 500 nM IRS1 peptide; 75 μM DiFMUP substrate
- Description: SHP2 Inhibition Enzymatic Assay Assay volume of 20 μL/well was assembled in 384 well black polystyrene low-binding microplates (Greiner), using the following buffer: 60 mM HEPES pH 7.2, 75 mM NaCl, 75 mM KCl, 1 mM EDTA pH 8, 0.05% tween-20, 5 mM DTT. […] Briefly, DMSO serially diluted testing compounds were transferred to the bottom of the assay plate. […] The fluorescence was detected by a microplate reader (Envision, PerkinElmer) according to the DiFMUP excitation and emission wavelength. […]

Some entries whose results are on file:
CC1(N)CCN(c2nc3nc(Sc4ccnc5c(C(F)(F)F)cccc45)cnc3[nH]2)CC1 [Example 97] ... 500 to 3000 nM
CC1(N)CCN(c2nc3nc(Sc4ccccc4C#N)cnc3[nH]2)CC1 [Example 23] ... < 500 nM
COc1nccc(Sc2cnc3[nH]c(N4CCC5(CC4)Cc4ncccc4[C@H]5N)nc3n2)c1Cl [Example 151] ... < 500 nM

Query :: # IC50 lookup, item Nc1nccc(Sc2cnc3[nH]c(N4CCC5(CC4)Cc4ccccc4[C@H]5N)cc3n2)c1Cl [Example 265]
Result :: < 500 nM

Query :: Now the compound CC1(N)CCN(c2nc3nc(Sc4cccc(F)c4F)cnc3[nH]2)CC1 [Example 21]
Result :: 500 to 3000 nM

Query :: Quick one: CC1(N)CCN(c2nc3nc(Sc4cccc5cccnc45)cnc3[nH]2)CC1 [Example 88]
Result :: < 500 nM

Query :: Consider next the compound CC1(N)CCN(c2nc3nc(Sc4ccnc5cccnc45)cnc3[nH]2)CC1 [Example 62] in the same way.
Result :: < 500 nM

Query :: Record: COc1nccc(Sc2cnc3[nH]c(N4CCC5(CC4)Cc4ccc(Br)cc4[C@H]5N)nc3n2)c1Cl [Example 228]
Result :: < 500 nM

Query :: Please give the result for CC1(N)CCN(c2nc3nc(Sc4ccccc4C(F)(F)F)cnc3[nH]2)CC1 [Example 18] too.
Result :: < 500 nM

Query :: Entry N[C@@H]1c2cc(F)ccc2CC12CCN(c1nc3ncc(Sc4cccc5c4OCCN5)nc3[nH]1)CC2 [Example 184] please
Result :: < 500 nM

Query :: Now consider CC1(N)CCN(c2nc3nc(Sc4ccc(-c5nnc(-c6ccccc6)o5)cc4)cnc3[nH]2)CC1 [Example 59] .
Result :: 500 to 3000 nM
